assay: Delivery of various NSAIDs through human skin, effect of propylene glycol, static cells (Example 8); format: in vitro ADME; details: 5% PG, 10% enhancer, ethanol:water 70:30, pH about 7, human skin
recordedMetric: Avg 24 Hour % Dose (%)

| molecule | recordedMetric | unitsLabel | valueObserved |
| --- | --- | --- | --- |
| O=C(c1ccccc1)c1ccc2n1CCC2C(=O)O (stereo not shown) [Ketorolac] | Avg 24 Hour % Dose | % | 27.1 |

A. O=C(O)Cc1ccccc1Nc1c(Cl)cccc1Cl [Diclofenac]
B. CC(C)Cc1ccc(C(C)C(=O)O)cc1 (stereo not shown) [Ibuprofen]
C. CC(C(=O)O)c1cccc(C(=O)c2ccccc2)c1 (stereo not shown) [Ketoprofen]
Task item: Thanks in advance: please rank these 3 entries by Avg 24 Hour % Dose, highest to lowest. Please, when replying, give the labels in the order that was requested.
Reply: B, A, C
(B: 57.9%, A: 29.7%, C: 10.3%)

###

test: Delivery of various NSAIDs through human skin, effect of propylene glycol, static cells (Example 8); format: in vitro ADME; settings: 0% PG, 10% enhancer, ethanol:water 70:30, pH about 7, human skin
recordedMetric: Avg 24 Hour % Dose (%)

| molecule | valueObserved |
| --- | --- |
| CN1C(C(=O)Nc2ccccn2)=C(O)c2ccccc2S1(=O)=O [Piroxicam] | 66.3 |
| CC(C(=O)O)c1cccc(C(=O)c2ccccc2)c1 (centres unmarked) [Ketoprofen] | 9.1 |
| O=C(c1ccccc1)c1ccc2n1CCC2C(=O)O (centres unmarked) [Ketorolac] | 10.8 |

1. O=C(O)Cc1ccccc1Nc1c(Cl)cccc1Cl [Diclofenac]
2. CC(C)Cc1ccc(C(C)C(=O)O)cc1 (centres unmarked) [Ibuprofen]
Task item: Hey, which is lower on measured Avg 24 Hour % Dose, 1 or 2 ? In your reply, give the label of the chosen option.
Reply: 1

###

assay: Delivery of various NSAIDs through human skin, effect of propylene glycol, static cells (Example 8); type: in vitro ADME; conditions: 20% PG, 10% enhancer, ethanol:water 70:30, pH about 7, human skin
recordedMetric: Avg 24 Hour % Dose (%)

| molecule | Avg 24 Hour % Dose / % |
| --- | --- |
| CN1C(C(=O)Nc2ccccn2)=C(O)c2ccccc2S1(=O)=O [Piroxicam] | 63.5 |
| O=C(c1ccccc1)c1ccc2n1CCC2C(=O)O (centres unmarked) [Ketorolac] | 19.3 |

1. CC(C(=O)O)c1cccc(C(=O)c2ccccc2)c1 (centres unmarked) [Ketoprofen]
2. O=C(O)Cc1ccccc1Nc1c(Cl)cccc1Cl [Diclofenac]
Task item: Lower Avg 24 Hour % Dose: 1 or 2 ? Identify your pick by its label.
Reply: 1
(1: 27.0%, 2: 45.2%)

###

assay: Delivery of various NSAIDs through human skin, effect of propylene glycol, static cells (Example 8); format: in vitro ADME; conditions: 10% PG, 10% enhancer, ethanol:water 70:30, pH about 7, human skin
recordedMetric: Avg 24 Hour % Dose (%)

Record excerpt, results attached:
| molecule | Avg 24 Hour % Dose (%) |
| --- | --- |
| CN1C(C(=O)Nc2ccccn2)=C(O)c2ccccc2S1(=O)=O [Piroxicam] | 55.1 |
| O=C(c1ccccc1)c1ccc2n1CCC2C(=O)O (centres unmarked) [Ketorolac] | 25.0 |

A. CC(C(=O)O)c1cccc(C(=O)c2ccccc2)c1 (centres unmarked) [Ketoprofen]
B. O=C(O)Cc1ccccc1Nc1c(Cl)cccc1Cl [Diclofenac]
C. CC(C)Cc1ccc(C(C)C(=O)O)cc1 (centres unmarked) [Ibuprofen]
Task item: Ranking field: Avg 24 Hour % Dose; order: falling. Output spec: labels arranged per the requested ranking.
Reply: C, B, A
(C: 56.5%, B: 35.3%, A: 12.0%)
